# EXPERIMENT: inhibitors of TNFa-induced NFkB p65 translocation, primary screen, imaging, HUVEC, MLSMR starter and 10KST1 sets (AID 438);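 note: compound added about 3h40 before a 20 min TNFalpha stimulation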
# CONDITION_DETAILS: HUVEC TNFa-induced p65 nuclear translocation; measured here: nuclei count (cytotoxicity indicator), at 2.08 µM
PARAMETER_MEASURED: cell count

Solved entries (count: 5):
Cc1nnc(SCC(=O)Nc2ccc(Br)cn2)[nH]c1=O ... 359
Cc1ccc(NC(=O)CC2C(=O)NC3CCCCC3N2C(=O)c2ccc(F)cc2)cc1C (stereo unspecified) ... 461
COc1ccc(C(=O)NCCn2ccc3ccccc32)c(OC)c1 ... 280
CC(=O)N(C)C1(c2nnnn2CCOC(=O)Nc2ccc(Cl)cc2)CCCCC1 ... 498
COCCn1nnnc1CN1CCC(Cc2ccccc2)CC1 ... 513

stdin: Given CCOC(=O)N1CCN(C(=O)c2ccc3c(=O)n(Cc4ccc(OC)cc4)c(=S)[nH]c3c2)CC1 , state its recorded cell count.
stdout: 475

stdin: Entry under review: CC1(C)OC(=O)C(=CNc2ccccc2F)C(=O)O1 . Reported cell count?
stdout: 604

stdin: So what does the record say about cell count for Cc1nnc(SCC(=O)N(C(C)C)C(C)C)nc1C ?
stdout: 430

stdin: Would you kindly share the measured cell count for OCCn1c(-c2ccc3c(c2)OCO3)csc1=Nc1ccccc1 ?
stdout: 565

stdin: Which cell count value belongs to CCOC(=O)Cn1nc(-c2ccc(Cl)cc2)cc1N ?
stdout: 285

stdin: Give its cell count value. Item: CN1CCN(c2oc(COc3ccc(-c4ccccc4)cc3)nc2C#N)CC1
stdout: 3

====

# MEASUREMENT_TARGET: Alpha-2C adrenergic receptor (Homo sapiens) (UniProt P18825)
# Sequence (P18825 whole entry, looked up): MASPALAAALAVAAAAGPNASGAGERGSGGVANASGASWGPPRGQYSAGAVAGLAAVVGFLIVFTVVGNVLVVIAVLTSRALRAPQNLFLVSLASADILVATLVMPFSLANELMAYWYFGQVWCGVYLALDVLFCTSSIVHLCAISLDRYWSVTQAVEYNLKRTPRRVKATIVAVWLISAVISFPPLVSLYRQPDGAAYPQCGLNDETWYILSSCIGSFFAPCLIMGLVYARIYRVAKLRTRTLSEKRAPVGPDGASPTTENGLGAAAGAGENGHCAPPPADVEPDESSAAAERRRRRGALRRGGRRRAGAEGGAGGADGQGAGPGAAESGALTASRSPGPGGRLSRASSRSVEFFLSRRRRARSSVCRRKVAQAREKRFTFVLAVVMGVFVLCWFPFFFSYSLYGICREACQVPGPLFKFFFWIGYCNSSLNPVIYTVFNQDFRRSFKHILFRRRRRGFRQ
# EXPERIMENT: compounds altering alpha2C-coupled GIRK flux – cell-based, HEK293 alpha2C/GIRK1/2, thallium flux, primary screen (AID 624);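 note: slope of fluorescence ratio to pre-addition baseline per second over 15 to 24 s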
# CONDITION_DETAILS: thallium flux BTC fluorescence, at 10 µM, actives lie on both sides
hey, just use label 1 if measured slope is less than 0.005, otherwise label 0

stdin: State whether 0.005 exceeds slope recorded for COCCNC(=O)CCc1nc(-c2ccccc2)no1 .
stdout: label 0

stdin: Does the reported slope of O=C(NCc1cccs1)C1CCCN(c2ncccn2)C1 (stereo unspecified) stay below 0.005?
stdout: label 0

stdin: Just wondering, is slope of COc1ccc(-n2c(SCC(=O)c3c(N)n(C)c(=O)n(C)c3=O)nc3ccccc32)cc1 below 0.005?
stdout: label 0

stdin: Field: below-cutoff. Rule: recorded slope strictly less than 0.005. Subject: Cc1c(C(=O)N2CCCC2)sc(NC(=O)c2cccs2)c1C#N
stdout: label 0

stdin: Quick check: does N#CCCN(C(=O)Nc1ccc(Cl)cc1)c1ccccc1 have slope under 0.005?
stdout: label 1

stdin: Please let me know if Cc1ccccc1C(=O)Nc1c(C(=O)N2CCCC2)cnn1-c1ccccc1 shows slope below 0.005.
stdout: label 0

stdin: Hello, I'm reviewing records and need to know if slope of Cc1ccc(SC(C)c2nc(-c3ccccc3)no2)cc1 (stereo unspecified) is below 0.005. Could you check?
stdout: label 1

====

# EXPERIMENT: endothelial E-selectin expression blockers – imaging, HUVEC, immunofluorescence, MLSMR starter and 10KST1 sets, primary screen (AID 487);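 note: signal is fraction of cell area covered by stained E-selectin grains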
# CONDITION_DETAILS: HUVEC TNFalpha-induced E-selectin immunofluorescence imaging, at 2 µM; stronger effect = higher value
PARAMETER_MEASURED: inhibition (%)
Please respond with the number in % and leave the unit unwritten.

Use these answered entries as a reference point.
O=C(OCn1nnc2ccccc2c1=O)C1CCN(S(=O)(=O)c2cccs2)CC1 ... 13.8
N#Cc1c(/N=C/c2cccs2)sc2c1CCCCC2 ... -14.2
COc1ccc(-c2[nH]c(-c3cccc(OC)c3)nc2SCC(=O)NCc2ccco2)cc1 ... -5.4
O=C(CSc1nnc(Cc2cccs2)n1Cc1ccco1)Nc1cccc(Cl)c1 ... -30.1
COc1cccc(N(C(C)=O)c2nc(C)cc(C)c2C#N)c1 ... -47.7
O=C(NC1CCCCC1)C1CCCN1C(=O)NCc1ccccc1 (stereo unspecified) ... -33.5
CC1CN(C(=O)CSc2nnc(-c3ccc(Cl)cc3)n2C)CC(C)O1 (stereo unspecified) ... -122
C=CCSc1n[nH]c(-c2ccc(OC)cc2)n1 ... -73.2

stdin: # input compound: C/C=C(\C)c1nnc(NC(=O)C(C)C)s1 ; wanted: its inhibition
stdout: -50.6

stdin: Entry Cc1ccc(NC(=O)CSc2nnc(Cc3cccn3C)n2-c2ccc(F)cc2)cc1 has what inhibition?
stdout: -118

stdin: Given the entry CN(C)c1ccc(C(=O)Nc2nnc(-c3ccc(Cl)cc3)o2)cc1 , report its measured inhibition.
stdout: -46.6
